B1: LINE1-full (parent)
chain: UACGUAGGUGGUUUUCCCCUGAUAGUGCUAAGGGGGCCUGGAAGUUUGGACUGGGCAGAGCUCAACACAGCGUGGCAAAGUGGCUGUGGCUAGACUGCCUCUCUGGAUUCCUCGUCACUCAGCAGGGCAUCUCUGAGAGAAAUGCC

- Variants of: B1
- method: self-cleavage, relative activity (ratio to wild type); higher = more cleavage; in vitro, sequencing; the parent is a self-cleaving ribozyme
recorded.metric: self-cleavage
Numbers only.

These recorded examples may help you get a feel for the data.
What value of measured self-cleavage is listed for U102C A136C ? 0.97

Which self-cleavage value belongs to U26A G58U ? 0.05

Name the reported self-cleavage value associated with the variant G11A U52G 1.56

Item C19U U96C has what recorded self-cleavage? 0.18

State the recorded self-cleavage for this entry: U26A C95U 0.17

Please give self-cleavage, item by item, for the list that follows.
1. A69U C101U
2. G41A A79U
3. U13C G55C

0.03
1.28
0.25

Batch request: self-cleavage per item, same order as input.
1. A78U A138U
2. G32A A50G
3. U13C G21U
4. A59G A138G
5. A92G U112C
6. G36A A117G
7. U12G C56U

1. 2.15
2. 0.93
3. 1
4. 0.1
5. 0.13
6. 1.34
7. 0.22

Need self-cleavage for each of these variants.
1. A30G U85G
2. U5C A6U
3. U9A C113U
4. A57U U104A
5. U45A A141U
6. G60A U115C
7. U73C G105U
8. C111U G137A

1: 0.17; 2: 1.09; 3: 0.97; 4: 0.06; 5: 1.01; 6: 0.04; 7: 1.32; 8: 1.73

For every item in the list below, what is its measured self-cleavage?
1. U20A A138G
2. C63U U104C
3. U108A A138G
4. U81C C95A
5. A65U G127A
6. A117C G126A

1: 1.27; 2: 0.1; 3: 1.79; 4: 0.03; 5: 0.68; 6: 1.64

Dear colleague, could you please provide self-cleavage for the variants listed below?
1. A117U G135U
2. U81C A142G
3. G7C U73C
4. G36A U119C
5. A50U U85A
6. U14A U81A
7. A77G G114A

1. 1.68
2. 1.38
3. 0.74
4. 2.42
5. 0.05
6. 2.09
7. 2.27

Look at each variant and report its self-cleavage.
1. A22G A92U
2. U26A G114A
3. G25C A69G
4. G32U C113A

1. 0.79
2. 0.67
3. 0.14
4. 0.96

Items follow; give self-cleavage for each.
1. A30C G41U
2. A78U U85A
3. C19U G72A

[1.52, 0.11, 1.19]

I have 2 variants here; please give me self-cleavage for each one.
1. U52A U87G
2. C19U A78G

1. 0.29
2. 1.24
